Some compounds, each annotated with its measured inhibition of growth at 10 µg/mL.
test system: L5178Y; test: Cytotoxic activity against mouse L5178Y cells assessed as growth inhibition at 10 ug/ml by MTT assay; type: functional; conditions: read-out: GI
// note: answer is a bare numeric in %

Some compounds with recorded inhibition of growth at 10 µg/mL:
{"Compound": "COC1=Cc2ccnc3ccnc(c23)C1(OC)OC", "Measured Metric": "inhibition of growth at 10 µg/mL", "Result Units": "%", "Observed Measurement": 51.2}
{"Compound": "COc1cc2ccnc3ccn4cnc1c4c23", "Measured Metric": "inhibition of growth at 10 µg/mL", "Result Units": "%", "Observed Measurement": 98.7}
{"Compound": "COc1cc2cc(C(=O)c3ccccc3)nc3c2c(c1O)NC=C3", "Measured Metric": "inhibition of growth at 10 µg/mL", "Result Units": "%", "Observed Measurement": 93.7}
{"Compound": "COC1=Cc2ccnc3c(N)cnc(c23)C1=O", "Measured Metric": "inhibition of growth at 10 µg/mL", "Result Units": "%", "Observed Measurement": 64.4}
{"Compound": "COc1nc2c(OC)cc3ccnc4ccn(c1=O)c2c34", "Measured Metric": "inhibition of growth at 10 µg/mL", "Result Units": "%", "Observed Measurement": 38.6}
{"Compound": "COc1cc2ccnc3ccn4c(=O)cnc1c4c23", "Measured Metric": "inhibition of growth at 10 µg/mL", "Result Units": "%", "Observed Measurement": 0}

Next, consider the following compound.
QUERY: Would you kindly share the measured inhibition of growth at 10 µg/mL for COc1cc2ccnc3c2c(c1OC)NC=C3 [AAPTAMINE] ?
RESULT: 100
